- experimental-system: PI3K alpha (Homo sapiens)
- Sequence (P42336 whole entry, species assumed): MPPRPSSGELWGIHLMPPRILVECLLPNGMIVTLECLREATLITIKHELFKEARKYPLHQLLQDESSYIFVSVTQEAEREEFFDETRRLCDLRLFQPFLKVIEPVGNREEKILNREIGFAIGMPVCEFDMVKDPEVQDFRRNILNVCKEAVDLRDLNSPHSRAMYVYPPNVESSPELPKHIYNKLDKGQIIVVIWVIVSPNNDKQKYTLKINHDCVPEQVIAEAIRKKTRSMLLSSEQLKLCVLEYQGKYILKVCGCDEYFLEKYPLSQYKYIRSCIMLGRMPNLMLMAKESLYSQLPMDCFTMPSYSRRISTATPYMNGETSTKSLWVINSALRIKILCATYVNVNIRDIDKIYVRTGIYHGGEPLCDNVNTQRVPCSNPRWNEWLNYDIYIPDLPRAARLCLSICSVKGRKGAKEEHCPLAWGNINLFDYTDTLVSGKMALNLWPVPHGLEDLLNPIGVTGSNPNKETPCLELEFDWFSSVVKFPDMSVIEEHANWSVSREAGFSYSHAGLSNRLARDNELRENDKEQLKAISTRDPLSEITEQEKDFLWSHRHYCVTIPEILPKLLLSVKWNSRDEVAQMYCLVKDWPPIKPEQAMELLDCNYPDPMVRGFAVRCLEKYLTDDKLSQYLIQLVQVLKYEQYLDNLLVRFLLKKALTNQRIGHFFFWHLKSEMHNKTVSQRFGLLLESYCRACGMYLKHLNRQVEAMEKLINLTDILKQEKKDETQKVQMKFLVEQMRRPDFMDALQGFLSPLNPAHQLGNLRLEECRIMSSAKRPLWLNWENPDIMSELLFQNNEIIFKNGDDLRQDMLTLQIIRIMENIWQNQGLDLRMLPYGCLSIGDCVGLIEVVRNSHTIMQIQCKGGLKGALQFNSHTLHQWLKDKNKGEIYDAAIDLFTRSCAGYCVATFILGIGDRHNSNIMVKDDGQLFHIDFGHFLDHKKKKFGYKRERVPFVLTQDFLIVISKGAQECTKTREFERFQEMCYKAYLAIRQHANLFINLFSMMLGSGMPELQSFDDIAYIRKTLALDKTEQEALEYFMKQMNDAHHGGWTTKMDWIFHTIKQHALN
- Sequence (P27986 whole entry partner, species assumed): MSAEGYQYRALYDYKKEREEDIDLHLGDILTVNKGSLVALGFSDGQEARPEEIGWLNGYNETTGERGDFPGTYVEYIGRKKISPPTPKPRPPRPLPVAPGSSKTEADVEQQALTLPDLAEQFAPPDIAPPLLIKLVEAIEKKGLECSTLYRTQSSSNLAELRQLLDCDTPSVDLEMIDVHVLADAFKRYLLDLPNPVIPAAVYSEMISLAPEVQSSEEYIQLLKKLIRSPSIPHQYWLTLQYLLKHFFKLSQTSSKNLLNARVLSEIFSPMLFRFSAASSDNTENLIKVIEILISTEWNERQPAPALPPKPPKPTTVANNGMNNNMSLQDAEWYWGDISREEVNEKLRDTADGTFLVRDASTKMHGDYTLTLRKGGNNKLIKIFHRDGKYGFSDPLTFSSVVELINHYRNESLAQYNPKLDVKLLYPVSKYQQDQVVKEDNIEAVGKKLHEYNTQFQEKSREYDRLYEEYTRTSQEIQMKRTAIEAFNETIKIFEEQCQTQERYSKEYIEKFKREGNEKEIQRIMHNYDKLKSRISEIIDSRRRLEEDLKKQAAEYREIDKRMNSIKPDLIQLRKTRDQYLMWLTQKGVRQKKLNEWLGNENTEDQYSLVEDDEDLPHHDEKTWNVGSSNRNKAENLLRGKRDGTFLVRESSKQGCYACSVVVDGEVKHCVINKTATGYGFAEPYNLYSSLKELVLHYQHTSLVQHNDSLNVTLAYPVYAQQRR
- assay-summary: PI3K-α assay (ADP-Glo enzyme inhibition)
- Assay type: biochemical
- condition-label: at 500 nm; read-out: In vitro PI3K α % of inhibition
property: inhibition at 0.5 µM

Examples with answers:
* O=C(N(C(=O)C(F)(F)F)c1nc(N2CCOCC2)nc(N2CCC(Oc3ccc(F)cc3)CC2)n1)C(F)(F)F | 50 to 70%
* Cc1ccc(OC2CCN(c3nc(N4CCOCC4)nc(-n4c(C(F)F)nc5ccccc54)n3)CC2)cc1 | 50 to 70%
* Fc1ccc(NC2CCN(c3nc(N4CCOCC4)nc(-n4c(C(F)F)nc5ccccc54)n3)CC2)cc1 | 50 to 70%
* Fc1ccccc1NC1CCN(c2nc(N3CCOCC3)nc(-n3c(C(F)F)nc4ccccc43)n2)CC1 | 50 to 70%
* Cc1ccc(NC2CCN(c3nc(N4CCOCC4)nc(-n4cnc5cc(F)ccc54)n3)CC2)cc1 | 50 to 70%

Exercise: Short answer please: inhibition at 0.5 µM, PI3K alpha (Homo sapiens), entry Fc1ccc(N(c2ccc(F)cc2)C2CCN(c3nc(N4CCOCC4)nc(-n4c(C(F)F)nc5ccccc54)n3)CC2)cc1
Solution: > 70%

Exercise: Short answer please: inhibition at 0.5 µM, PI3K alpha (Homo sapiens), entry COc1ccc(NC2CCN(c3nc(N4CCOCC4)nc(-n4c(C(F)F)cc5ccccc54)n3)CC2)cc1
Solution: > 70%
